EXPERIMENTAL_DETAILS: Serum (blood) level in rats
Type: in vivo
COND: rat, oral 100 mg/kg, 30 min., average from 3 rats
OBSERVABLE: concentration at 0.5 h (ng/mL)
# number only, unit ng/mL dropped from output

Use these answered entries as a reference point.
Given the entry CC(=O)Nc1ncc(NC(=O)N[C@@H](C(=O)N[C@@H]2C(=O)N3[C@@H]2SC(C)(C)[C@@H]3C(=O)O)c2ccc(O)cc2)c(O)n1 , report its measured concentration at 0.5 h.
13800

Would you kindly repeat that for CC1(C)S[C@@H]2[C@H](NC(=O)[C@H](NC(=O)Nc3cnc(C4CC4)nc3O)c3ccc(O)cc3)C(=O)N2[C@H]1C(=O)O ?
3300

What about CC1(C)S[C@@H]2[C@H](NC(=O)[C@H](NC(=O)Nc3cncnc3O)c3ccc(O)cc3)C(=O)N2[C@H]1C(=O)O ?
9100

Further cases:
What concentration at 0.5 h value was documented for this compound, CC1(C)S[C@@H]2[C@H](NC(=O)[C@H](NC(=O)N3CCNC3=O)c3ccccc3)C(=O)N2[C@H]1C(=O)O [Q, reference compound] ?
800

====

EXPERIMENTAL_DETAILS: Serum (blood) level in rats
Type: in vivo
COND: rat, sc, subcutaneous 10 mg/kg, 30 min., average from 3 rats
OBSERVABLE: concentration at 0.5 h (ng/mL)
Numeric answer only, unit ng/mL assumed.

Consider the reported concentration at 0.5 h for these molecules:
So what does the record say about concentration at 0.5 h for CC1(C)S[C@@H]2[C@H](NC(=O)[C@H](NC(=O)Nc3cncnc3O)c3ccc(O)cc3)C(=O)N2[C@H]1C(=O)O ?
9300

# repeat for CC1(C)S[C@@H]2[C@H](NC(=O)[C@H](NC(=O)Nc3cnc(C4CC4)nc3O)c3ccc(O)cc3)C(=O)N2[C@H]1C(=O)O
5100

Next: CC(=O)Nc1ncc(NC(=O)N[C@@H](C(=O)N[C@@H]2C(=O)N3[C@@H]2SC(C)(C)[C@@H]3C(=O)O)c2ccc(O)cc2)c(O)n1
4100

Now let's try a different one.
I have this molecule here, CC1(C)S[C@@H]2[C@H](NC(=O)[C@H](NC(=O)N3CCNC3=O)c3ccccc3)C(=O)N2[C@H]1C(=O)O [Q, reference compound] , and I need its recorded concentration at 0.5 h.
2800

====

Tested on: escherichia coli 12593/74 (β-lactamase carrier)
EXPERIMENTAL_DETAILS: MIC, serial dilution test in the microtiter system
Type: cell-based
COND: 18 h, E. coli 12593/74 (β-lactamase carrier), 37° C., 18-20 hours
Measured MIC values are reported for all entries that follow.
Quick note: give the figure in µg/mL, leave out the unit.

Here are 3 compounds together with their reported answers.
Please give the measured MIC for this compound: CC1(C)S[C@@H]2[C@H](NC(=O)[C@H](NC(=O)Nc3cnc(C4CC4)nc3O)c3ccc(O)cc3)C(=O)N2[C@H]1C(=O)O
80

Then this compound: CC1(C)S[C@@H]2[C@H](NC(=O)[C@H](NC(=O)Nc3cnc(Nc4ccc(Cl)cc4)nc3O)c3ccc(O)cc3)C(=O)N2[C@H]1C(=O)O
80

Another compound to check: CC1(C)S[C@@H]2[C@H](NC(=O)[C@H](NC(=O)Nc3cnc(Cc4ccc(Cl)cc4)nc3O)c3ccc(O)cc3)C(=O)N2[C@H]1C(=O)O
80

---
Dear colleague, I am looking for the recorded MIC of the following compound: CC1(C)S[C@@H]2[C@H](NC(=O)[C@H](NC(=O)Nc3cnc(NCc4ccc(Cl)cc4)nc3O)c3ccc(O)cc3)C(=O)N2[C@H]1C(=O)O
80
